Biological target: TBK1 (Homo sapiens, UniProt Q9UHD2)
Sequence (Q9UHD2 whole entry, species assumed): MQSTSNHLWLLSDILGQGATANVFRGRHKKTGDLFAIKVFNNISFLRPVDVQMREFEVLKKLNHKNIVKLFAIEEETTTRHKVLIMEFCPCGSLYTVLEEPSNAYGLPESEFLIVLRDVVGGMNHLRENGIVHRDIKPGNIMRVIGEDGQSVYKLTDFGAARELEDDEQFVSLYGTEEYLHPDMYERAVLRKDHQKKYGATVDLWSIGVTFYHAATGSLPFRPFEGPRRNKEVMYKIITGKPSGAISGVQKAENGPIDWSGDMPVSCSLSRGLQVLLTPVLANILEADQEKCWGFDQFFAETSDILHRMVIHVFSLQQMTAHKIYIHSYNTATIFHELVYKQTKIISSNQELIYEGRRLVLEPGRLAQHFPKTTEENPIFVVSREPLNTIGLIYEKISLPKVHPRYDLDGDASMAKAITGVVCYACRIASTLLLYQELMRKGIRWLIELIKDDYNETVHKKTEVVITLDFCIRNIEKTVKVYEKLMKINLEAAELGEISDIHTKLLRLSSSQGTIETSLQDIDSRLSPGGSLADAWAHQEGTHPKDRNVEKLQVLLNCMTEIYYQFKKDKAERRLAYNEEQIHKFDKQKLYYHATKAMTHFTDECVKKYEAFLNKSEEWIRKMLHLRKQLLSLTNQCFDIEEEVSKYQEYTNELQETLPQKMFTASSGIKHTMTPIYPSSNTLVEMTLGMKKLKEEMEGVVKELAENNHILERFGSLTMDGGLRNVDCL
Experiment: TBK Biochemical Assay
Conditions: read-out: TBK1 IC50
Structures can show the parent of a compound that is named as a salt.
MEASURED_ENDPOINT: IC50

COMPOUND: CN(C)C(=O)c1ccc(-c2cc3nccc(-c4ccc(N5CC[C@@H](N(C)C)C5)c(C#N)c4)c3o2)cc1
IC50: 100 to 1000 nM
//
COMPOUND: COc1cc(C(=O)N(C)C)ccc1-c1cc2nccc(-c3ccc(OC4CNC4)c(C#N)c3)c2o1
IC50: < 100 nM
//
COMPOUND: COc1cc(C(=O)N[C@H]2COC[C@@H]2N(C)C)ccc1-c1cc2nccc(-c3ccc(OC4CCOCC4)c(C#N)c3)c2o1
IC50: < 100 nM
//
COMPOUND: COc1cc(C(=O)N(C)C)cnc1-c1cc2nccc(-c3ccc(OC4CCN(C)CC4(F)F)c(C#N)c3)c2o1 (stereo not drawn)
IC50: < 100 nM
//
COMPOUND: COc1cc(C(=O)N2C3CCCC2CC3)ccc1-c1cc2nccc(-c3ccc(NC4CCOCC4)c(C#N)c3)c2o1
IC50: < 100 nM

Working through the 3 compounds below one at a time, give IC50 for each.
1. COc1cc(C(=O)NC2(CO)COC2)ccc1-c1cc2nccc(-c3ccc(OC4CCOCC4)c(C#N)c3)c2o1
2. COc1cc(C(=O)N2CCCCC2CO)ccc1-c1cc2nccc(-c3ccc(OC4CCOCC4)c(C#N)c3)c2o1 (stereo not drawn)
3. CN(C)C(=O)c1ccc(-c2cc3nccc(-c4ccc(OC5CCOC(C)(C)C5)c(C#N)c4)c3o2)cc1 (stereo not drawn)

< 100 nM
< 100 nM
100 to 1000 nM

Working through the 7 compounds below one at a time, give IC50 for each.
1. COc1cc(C(=O)NC2(CO)CCCC2)ccc1-c1cc2nccc(-c3ccc(OC4CCOCC4)c(C#N)c3)c2o1
2. CN(C)C(=O)c1ccc(-c2cc3nccc(-c4cc(F)c(NC5CCOCC5)c(C#N)c4)c3o2)cc1 [Compound 224, hydrochloride]
3. COc1cc(C(=O)N2CCCCN2C)ccc1-c1cc2nccc(-c3ccc(OC4CCOCC4)c(C#N)c3)c2o1
4. COc1cc(C(=O)N(C)C)cnc1-c1cc2ncc(C(C)C)c(-c3ccc(OC4CCOCC4)c(C#N)n3)c2o1 [Compound 331, hydrochloride]
5. CC1(O)CN(C(=O)c2ccc(-c3cc4nccc(-c5ccc(OC6CCOCC6)c(C#N)c5)c4o3)cc2)C1
6. COc1cc(C(=O)N2CCC3(CCO3)CC2)ccc1-c1cc2nccc(-c3ccc(OC4CCOCC4)c(C#N)c3)c2o1
7. COc1cc(C(=O)N2CCC3(CCC3)C2)ccc1-c1cc2nccc(-c3ccc(OC4CCOCC4)c(C#N)c3)c2o1

< 100 nM
100 to 1000 nM
< 100 nM
> 5000 nM
< 100 nM
< 100 nM
< 100 nM

Working through the 4 compounds below one at a time, give IC50 for each.
1. CC(=O)Nc1ccc(-c2cc3nccc(-c4ccc(OC5CCOCC5)c(C#N)c4)c3o2)cc1
2. COc1cc(C(=O)N(C)C)ccc1-c1cc2nccc(-c3ccc(OC4CCNCC4)c(C#N)c3)c2o1 [Compound 158, Hydrochloride]
3. COc1cc(C(=O)N(C)C)ccc1-c1cc2nccc(-c3ccc(OC4CC(C)(C)NC(C)(C)C4)c(C#N)c3)c2o1
4. COc1cc(C(=O)N(C)C)ccc1-c1cc2ncc(Cl)c(-c3ccc(OC4CCOCC4)c(C#N)c3)c2o1

["< 100 nM", "100 to 1000 nM", "100 to 1000 nM", "100 to 1000 nM"]

Working through the 2 compounds below one at a time, give IC50 for each.
1. COc1cc(C(=O)N(C)CCO)cnc1-c1cc2ncc(C(C)C)c(-c3ccc(OC4CCOCC4)c(C#N)n3)c2o1 [Compound 359, hydrochloride]
2. COc1cc(C(=O)NCC(O)CO)ccc1-c1cc2nccc(-c3ccc(NC4CCOCC4)c(C#N)c3)c2o1 (stereo not drawn)

1: > 5000 nM; 2: < 100 nM

Working through the 4 compounds below one at a time, give IC50 for each.
1. COc1cc(C(=O)N2CC(S(C)(=O)=O)C2)ccc1-c1cc2nccc(-c3ccc(OC4CCOCC4)c(C#N)c3)c2o1
2. COc1cc(C(=O)N(C)C)ccc1-c1cc2nccc(-c3ccc(NC4CCNC4)c(C#N)c3)c2o1 (stereo not drawn)
3. COc1cc(C(=O)NC2C3COCC32)ncc1-c1cc2nccc(-c3ccc(N4CC[C@@H](F)C4)c(C#N)c3)c2o1 (stereo partly drawn)
4. COc1c(C(=O)N(C)C)nn(C)c1-c1cc2nccc(-c3ccc(OC4CCOCC4)c(C#N)c3)c2o1 [Compound 401, hydrochloride]

1. < 100 nM
2. < 100 nM
3. < 100 nM
4. < 100 nM

Working through the 2 compounds below one at a time, give IC50 for each.
1. COc1cc(C(=O)N2CC3CCCC3C2)ccc1-c1cc2nccc(-c3ccc(NC4CCOCC4)c(C#N)c3)c2o1 (stereo not drawn)
2. COc1cc(C(=O)NC2CCNCC2)ccc1-c1cc2nccc(-c3ccc(OC4CCOCC4)c(C#N)c3)c2o1 [Compound 62, hydrochloride]

< 100 nM
< 100 nM
